Recorded pIC50 for the following compounds
- assayedSystem: human recombinant A3AR (expressed in HEK-293 cells) (Homo sapiens, UniProt P0DMS8)
- Construct: host or cells: HEK-293 cells
- Sequence (P0DMS8 1-318): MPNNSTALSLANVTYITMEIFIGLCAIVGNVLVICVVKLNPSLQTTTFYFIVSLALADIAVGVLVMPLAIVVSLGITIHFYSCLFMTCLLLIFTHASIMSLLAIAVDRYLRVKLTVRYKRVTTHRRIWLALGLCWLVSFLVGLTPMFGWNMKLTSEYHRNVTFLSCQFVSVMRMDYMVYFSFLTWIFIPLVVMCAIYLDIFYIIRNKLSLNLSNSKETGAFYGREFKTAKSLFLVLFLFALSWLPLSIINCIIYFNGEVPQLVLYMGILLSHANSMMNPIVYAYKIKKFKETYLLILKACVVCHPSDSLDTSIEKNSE
- protocol: Adenosine receptors antagonism assay (Eurofins), [125I]-AB-MECA radioligand competition
- Assay type: binding
- conditions: [125I]-AB-MECA 0.15 nM, r.t., 120 min; IC50 from dose-response curves; read-out: Potency Class A3AR
pIC50: −log10 of the molar value.

Looking for the measured pIC50 of CC(C)c1nnc2c(NCc3ccccc3)cc(NCC3CC3)nn12 [compound 122] , can you help?
7.00 to 8.00

Looking for the measured pIC50 of CCC(CC)Nc1cc(NC(CC)CC)c2nnc(C(C)C)n2n1 [compound 114] , can you help?
8.00 to 9.00

Looking for the measured pIC50 of c1ccc(CNc2cc(NCc3cccs3)nn3c(C4CC4)nnc23)nc1 [compound 210] , can you help?
8.00 to 9.00

Looking for the measured pIC50 of COCCNc1cc(NCCOC)c2nnc(C(C)C)n2n1 [compound 112] , can you help?
6.00 to 7.00

Looking for the measured pIC50 of CC(C)c1nnc2c(NCc3ccccc3)cc(NCC3CCCCC3)nn12 [compound 124] , can you help?
7.00 to 8.00

Looking for the measured pIC50 of CC(=O)NCCCNc1cc(NCc2ccccc2)c2nnc(C(C)C)n2n1 [compound 24] , can you help?
6.00 to 7.00

Looking for the measured pIC50 of CCC(CC)Nc1cc(N2CCc3ccccc3C2)c2nnc(C(C)C)n2n1 [compound 80] , can you help?
8.00 to 9.00

Looking for the measured pIC50 of c1ccc(CNc2cc(NCc3ccoc3)nn3c(C4CC4)nnc23)nc1 [compound 209] , can you help?
8.00 to 9.00

Looking for the measured pIC50 of CCC(CC)Nc1cc(NCc2ccccc2)c2nnc(C(C)C)n2n1 [compound 18] , can you help?
8.00 to 9.00

###

- protocol: LogD (HPLC)
- Assay type: physicochemical
- conditions: by HPLC; Table 2
observedProperty: chromatographic logD

The examples below pair each entry with its known result.
COC1CCC(Nc2cc(NCc3ccccc3)c3nnc(C(C)C)n3n2)CC1 (racemic) [compound 120] : 3.09
Cc1cc(C)cc(CNc2cc(NCc3ccccc3)c3nnc(C(C)C)n3n2)c1 [compound 141] : 4.2
CC(C)c1nnc2c(NCc3ccccc3)cc(NCC3CCOCC3)nn12 [compound 125] : 2.74
CC(C)c1nnc2c(NCc3ccccc3)cc(NCC3CCCCC3)nn12 [compound 124] : 4.6
Cc1cnc(CNc2cc(NCc3ccccc3)c3nnc(C(C)C)n3n2)cn1 [compound 139] : 2.3
CC(C)c1nnc2c(NCc3ccccc3)cc(NCC3CC3)nn12 [compound 122] : 3.33

(P) CC(C)c1nnc2c(NCc3ccccc3)cc(NCCc3ccccc3)nn12 [compound 127]
(Q) CC(C)c1nnc2c(NCc3ccccc3)cc(NCc3ccncc3)nn12 [compound 133]
Field: lower recorded chromatographic logD (choose P or Q ) Answer with the label corresponding to your selection.
Q
(Q: 2.36, P: 3.78)

(P) CC(C)c1nnc2c(NCc3ccccc3)cc(NCc3cccnc3)nn12 [compound 132]
(Q) CCC(CC)CNc1cc(NCc2ccccc2)c2nnc(C(C)C)n2n1 [compound 126]
Field: lower recorded chromatographic logD (choose P or Q ) Answer with the label corresponding to your selection.
P
(P: 2.36, Q: 4.42)

(I) Cc1cc(C)nc(CNc2cc(NCc3ccccc3)c3nnc(C(C)C)n3n2)n1 [compound 145]
(II) CC(C)c1nnc2c(NCc3ccccc3)cc(NC3CCCCC3)nn12 [compound 119]
Pick the one with the larger chromatographic logD: I vs II Answer with the label corresponding to your selection.
II
(II: 4.17, I: 2.52)

###

Recorded IC50 for the following molecules
- assayedSystem: human recombinant A3AR (expressed in HEK-293 cells) (Homo sapiens)
- Construct: host or cells: HEK-293 cells
- protocol: Adenosine receptors antagonism assay (Eurofins), [125I]-AB-MECA radioligand competition
- Format: binding
- conditions: [125I]-AB-MECA 0.15 nM, r.t., 120 min; IC50 from dose-response curves; read-out: Potency Class A3AR

The examples below pair each entry with its known result.
CC(C)c1nnc2c(NCc3ccccc3)cc(NC3CCOCC3)nn12 [compound 23] : 10 to 100 nM
c1ccc(CNc2cc(NC3CCCCCC3)nn3c(C4CC4)nnc23)nc1 [compound 201] : 1 to 10 nM
CCC(CC)Nc1cc(Nc2cncc(OC)c2)c2nnc(C(C)C)n2n1 [compound 160] : 1 to 10 nM
CCC(CC)Nc1cc(NCc2cnccn2)c2nnc(C(C)C)n2n1 [compound 94] : 1 to 10 nM

// switching to the query molecule
Record lookup: for human recombinant A3AR (expressed in HEK-293 cells) (Homo sapiens), what IC50 belongs to CC(C)c1nnc2c(NCc3ccccc3)cc(NCCc3ccccc3)nn12 [compound 127] ?
10 to 100 nM

###

Recorded pIC50 for the following compounds
- assayedSystem: human recombinant A3AR (expressed in HEK-293 cells) (Homo sapiens, UniProt P0DMS8)
- Construct: host or cells: HEK-293 cells
- protocol: Adenosine receptors antagonism assay (Eurofins), [125I]-AB-MECA radioligand competition
- Type: binding
- conditions: [125I]-AB-MECA 0.15 nM, r.t., 120 min; IC50 from dose-response curves; read-out: Potency Class A3AR
pIC50: −log10 of the molar value.

The examples below pair each entry with its known result.
CCC(CC)Nc1cc(Nc2cccnc2)c2nnc(C(C)C)n2n1 : > 9.00
CCC(CC)Nc1cc(NCc2ccc(O)cc2)c2nnc(C(C)C)n2n1 : 8.00 to 9.00
COCCCCNc1cc(NCc2ccccc2)c2nnc(C(C)C)n2n1 : 7.00 to 8.00
CC(C)c1nnc2c(NCc3ccc(-c4ccccn4)cc3)cc(N[C@H](CO)[C@@H](C)O)nn12 : 7.00 to 8.00
CC[C@H](CO)Nc1cc(Nc2cccnn2)c2nnc(C3CC3)n2n1 : > 9.00

Looking for the measured pIC50 of CNc1cc(NCc2ccc(Br)cc2)c2nnc(C(C)C)n2n1 , can you help?
6.00 to 7.00

###

- assayedSystem: human recombinant A3AR (expressed in HEK-293 cells) (Homo sapiens, UniProt P0DMS8)
- Construct: host or cells: HEK-293 cells
- protocol: Adenosine receptors antagonism assay (Eurofins), [125I]-AB-MECA radioligand competition
- Type: binding
- conditions: [125I]-AB-MECA 0.15 nM, r.t., 120 min; IC50 from dose-response curves; read-out: Potency Class A3AR
pIC50: −log10 of the molar value.
Recorded pIC50 for the following compounds

The examples below pair each entry with its known result.
COCCCNc1cc(NCCCOC)c2nnc(C(F)(F)F)n2n1 : 7.00 to 8.00
CC(C)c1nnc2c(NCc3ccccc3)cc(NCCC(=O)N(C)C)nn12 : 6.00 to 7.00
CC(C)c1nnc2c(NCc3ccccc3)cc(N[C@H](CO)[C@@H](C)O)nn12 (stereo in doubt) : 6.00 to 7.00
CCC(CC)Nc1cc(NCCCc2cccnc2)c2nnc(C(C)C)n2n1 : 8.00 to 9.00
CCC(CC)Nc1cc(Nc2ccccc2)c2nnc(C3CC3)n2n1 : > 9.00

Looking for the measured pIC50 of CCC(CC)Nc1cc(NCCCc2ccncc2)c2nnc(C(C)C)n2n1 , can you help?
8.00 to 9.00

Looking for the measured pIC50 of c1ccc(CNc2cc(NC34CC5CC(CC(C5)C3)C4)nn3c(C4CC4)nnc23)nc1 , can you help?
8.00 to 9.00

Looking for the measured pIC50 of CCOC(=O)Nc1cc(NC(CC)CC)nn2c(C(C)C)nnc12 , can you help?
8.00 to 9.00

Looking for the measured pIC50 of CC(C)c1nnc2c(NCc3ccccc3)cc(NC3CCc4ccccc43)nn12 (racemic) , can you help?
7.00 to 8.00

Looking for the measured pIC50 of CCC(CC)Nc1cc(NCCc2ccncc2)c2nnc(C3CC3)n2n1 , can you help?
8.00 to 9.00

Looking for the measured pIC50 of CCC(CC)Nc1cc(NCc2cc3ccccc3[nH]2)c2nnc(C(C)C)n2n1 , can you help?
7.00 to 8.00

Looking for the measured pIC50 of CC(C)c1nnc2c(NCc3ccccn3)cc(NCc3ccccc3)nn12 , can you help?
8.00 to 9.00

Looking for the measured pIC50 of CCC(CC)Nc1cc(NCc2ccccn2)c2nnc(-c3ccncc3)n2n1 , can you help?
7.00 to 8.00

Looking for the measured pIC50 of CCC(CC)Nc1cc(Nc2ccnnc2)c2nnc(C3CC3)n2n1 , can you help?
8.00 to 9.00

Looking for the measured pIC50 of COCCCNc1cc(NCCCOC)c2nnc(-c3ccccc3)n2n1 , can you help?
6.00 to 7.00

Looking for the measured pIC50 of COCCCNc1cc(NCc2ccccc2O)c2nnc(C(C)C)n2n1 , can you help?
7.00 to 8.00

The values you see were collected from patent EP4477653A1.
